System: XIP peptide (Xip251-270) binding
testMethodNotes: XIP fragment 251-270 binding compounds – biochemical, small-molecule microarray, fluorescence 635/667 nm, 0.1 µg/mL protein, primary screen (AID 1182)
assaySetup: fluorescent protein binding, 635 nm, higher = more signal, called active from +8 up or from −8 down
quantity: composite z-score
Numbers only.

1. [N-]=[N+]=Nc1ccccc1[C@H]1OC(c2ccc(OCCCO)cc2)=N[C@@]1(Cc1ccccc1)C(=O)NCc1ccccc1
1.39
2. COc1ccc(C#Cc2ccc3c(c2)[C@]2(C(=O)N3)[C@H](c3ccc(OCCO)cc3)N3[C@H](c4ccccc4)[C@H](c4ccccc4)OC(=O)[C@H]3[C@@H]2C(=O)N2CCN(c3ncccn3)CC2)cc1
-0.138
3. COc1ccc([Si](C)(C)[C@@H]2[C@@H](CC(=O)N3Cc4ccccc4C[C@H]3CO)O[C@]3(C(=O)N(Cc4cccc(N5CCCCC5=O)c4)c4ccccc43)[C@H]2C)cc1
1.63
4. COCCOC(=O)N1C(=O)[C@@]2(c3cc(C#Cc4ccc(OC)cc4)ccc31)[C@H](C(=O)N1CCc3cc(OC)c(OC)cc3C1)[C@H]1C(=O)O[C@H](c3ccccc3)[C@H](c3ccccc3)N1[C@@H]2c1ccc(OCCO)cc1
-0.266
5. CN(C)C(=O)[C@@]1(CCC(=O)OC(C)(C)C)COC(c2ccc(OCCCO)cc2)=N1
0.9
6. C=C(CCCC)/C(=C/C[C@H](OC(=O)c1ccncc1)c1ccc(CO)o1)c1cc(C(=O)OC)ccc1OC
0.948

Each compound below has a reported value. Please supply its composite z-score.
1. C=CCNC(=O)[C@H]1[C@@H]2C(=O)O[C@@H](c3ccccc3)[C@@H](c3ccccc3)N2[C@@H](c2ccc(O)cc2)[C@]12C(=O)N(C(=O)OCCOC)c1ccc(C#CC3(O)CCCCCC3)cc12
2. C=CCC(OC(C)=O)[C@@H]1[C@@H](N(Cc2cccc3ccccc23)C(=O)Cc2ccc(F)cc2)c2cc(OCCCO)ccc2N1C(=O)Cc1ccc(OC)cc1 (stereo partly drawn)
3. COC(=O)[C@@]1(Cc2ccccc2N=[N+]=[N-])N=C(c2ccc(OCCCO)cc2)O[C@H]1c1ccccc1
4. [N-]=[N+]=Nc1ccccc1C[C@]1(C(=O)NCCN2CCOCC2)N=C(c2ccc(OCCCO)cc2)O[C@H]1c1ccccc1N=[N+]=[N-]
5. CC(C)CCC[C@@H](C)[C@H]1CC[C@@]2(C)C3=C(CC[C@]12C)[C@@]1(C)CC[C@H](OC(=O)c2ccc(N)cc2)C(C)(C)C1CC3 (stereo partly drawn)
6. COc1cc2c(cc1OC)CN(C(=O)[C@@H]1[C@H]3C(=O)O[C@H](c4ccccc4)[C@H](c4ccccc4)N3[C@H](c3ccc(O)cc3)[C@@]13C(=O)Nc1ccc(C#CCNC(N)=O)cc13)CC2

[1.44, -0.51, 0.37, 1.24, 0.141, 0.503]

Look at this compound and give its reported composite z-score. COC(=O)[C@@]1(Cc2ccccc2)[C@H]2c3cc(C(=O)N4CCCC4)n(CCO)c3C[C@H]2CN1C(=O)c1ccccc1
1.06

----------
Could you please report measured composite z-score for the items listed next?
testMethodNotes: probe aLefty2 binding to arrayed compounds – biochemical, biotinylated probe, 635/667 nm fluorescence, primary screen (AID 1094);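 further: score merges spot fluorescence near 667 nm with spot signal-to-noise ratio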
assaySetup: small-molecule microarray, higher = more signal
Answers are plain numbers.

Known results for compounds:
1) CN1C(=O)C2C=CC(C(O)c3ccc(F)cc3)N(N3CCCCC3)C2C1=O (configuration not stated)
0.682
2) CCCCC(O)C1C=CC2C(=O)N(Cc3ccccc3)C(=O)C2N1n1cnnc1 (configuration not stated)
-0.103
3) CCOC(=O)C[C@H]1[C@H](OC(=O)c2ccc(C(=O)c3ccccc3)cc2)[C@@H](NC(=O)C2CCCCC2)c2cc(OCCCO)ccc2N1C(=O)Cc1ccc(OC)cc1
0.0044
4) O=C1N(CCS(=O)(=O)c2ccccc2)Cc2ccccc2C[C@@]12COC(c1ccc(OCCCO)cc1)=N2
0.686

Each compound below has a reported value. Please supply its composite z-score.
1. CCCCCCC#C[Si](O[C@H](c1ccccc1)c1cn(Cc2cccc(Cl)c2)nn1)(C(C)C)C(C)C
2. COCCOC(=O)N1C(=O)[C@@]2(c3ccccc31)[C@H](c1ccccc1OCCO)N1[C@H](c3ccccc3)[C@H](c3ccccc3)OC(=O)[C@H]1[C@@H]2C(=O)N1CCc2cc(OC)c(OC)cc2C1
3. COc1cc(NN2C(C(O)c3ccc(I)cc3)C=CC3C(=O)N(C)C(=O)C32)cc(OC)c1OC (configuration not stated)
4. O=C1c2ccccc2[C@](Cc2ccccc2I)(C(=O)NC2CC2)[C@H](c2ccc(CO)cc2)N1Cc1ccccc1Cl
5. C=CCOC(=O)[C@@H]1[C@H]2C(=O)O[C@H](c3ccccc3)[C@H](c3ccccc3)N2[C@H](c2ccc(OCCOC(=O)[C@@H]3C[C@@H]4C(=O)N[C@@H](CCCCNC(C)=O)C(=O)N4[C@@H]3c3ccc(O)cc3)cc2)[C@@]12C(=O)Nc1ccc(I)cc12

[-0.0719, 0.0706, 0.0283, 0.349, -0.0248]

Each compound below has a reported value. Please supply its composite z-score.
1. CCN(CC)c1ccc(N2CC=CC34O[C@@H]5/C=C\CCCOC(=O)C5[C@H]3C(=O)N(CCCCCCO)[C@@H]4C2=O)cc1 (some centres not stated)
2. COCCOC(=O)N1C(=O)[C@@]2(c3cc(C#CCNC(N)=O)ccc31)[C@H](C(N)=O)[C@H]1C(=O)O[C@H](c3ccccc3)[C@H](c3ccccc3)N1[C@@H]2c1ccc(OCCO)cc1
3. CC(=O)NCCCC[C@@H]1NC(=O)[C@@H]2C[C@H](C(=O)NCCCC[N+](C)(C)C)[C@H](c3cccc(OCCO)c3)N2C1=O
4. CCCCC(CC)C(O)C1C=CC2C(=O)NC(=O)C2N1Nc1ccccn1 (configuration not stated)
5. CO[C@H]1O[C@H](CO)[C@@H](OC(=O)Nc2ccc(C(F)(F)F)cc2)[C@H](OC(=O)Nc2ccccc2)[C@H]1OC(=O)Nc1ccccc1
6. O=C1C2C=CC(C(O)c3cccc4ccccc34)N(Nc3ccccc3)C2C(=O)N1c1ccccc1 (configuration not stated)
7. C=CC[C@@]1(C(=O)NCC(O)CO)N=C(c2ccc(OCCCO)cc2)O[C@@H]1c1ccccc1 (some centres not stated)
8. C=C(/C(=C/C[C@@H](OC(=O)c1ccncc1)c1cccc(OCCO)c1)c1cc(C(=O)OC)ccc1OC)C(C)C

[-0.162, -0.0054, 0.127, -0.11, 0.158, 0.343, 0.344, 0.0233]
